TARGET_UNDER_TEST: T1, G9a and GLP (Homo sapiens, UniProt Q96KQ7+Q9H9B1)
T1 sequence (Q96KQ7 2-1210 limits assumed): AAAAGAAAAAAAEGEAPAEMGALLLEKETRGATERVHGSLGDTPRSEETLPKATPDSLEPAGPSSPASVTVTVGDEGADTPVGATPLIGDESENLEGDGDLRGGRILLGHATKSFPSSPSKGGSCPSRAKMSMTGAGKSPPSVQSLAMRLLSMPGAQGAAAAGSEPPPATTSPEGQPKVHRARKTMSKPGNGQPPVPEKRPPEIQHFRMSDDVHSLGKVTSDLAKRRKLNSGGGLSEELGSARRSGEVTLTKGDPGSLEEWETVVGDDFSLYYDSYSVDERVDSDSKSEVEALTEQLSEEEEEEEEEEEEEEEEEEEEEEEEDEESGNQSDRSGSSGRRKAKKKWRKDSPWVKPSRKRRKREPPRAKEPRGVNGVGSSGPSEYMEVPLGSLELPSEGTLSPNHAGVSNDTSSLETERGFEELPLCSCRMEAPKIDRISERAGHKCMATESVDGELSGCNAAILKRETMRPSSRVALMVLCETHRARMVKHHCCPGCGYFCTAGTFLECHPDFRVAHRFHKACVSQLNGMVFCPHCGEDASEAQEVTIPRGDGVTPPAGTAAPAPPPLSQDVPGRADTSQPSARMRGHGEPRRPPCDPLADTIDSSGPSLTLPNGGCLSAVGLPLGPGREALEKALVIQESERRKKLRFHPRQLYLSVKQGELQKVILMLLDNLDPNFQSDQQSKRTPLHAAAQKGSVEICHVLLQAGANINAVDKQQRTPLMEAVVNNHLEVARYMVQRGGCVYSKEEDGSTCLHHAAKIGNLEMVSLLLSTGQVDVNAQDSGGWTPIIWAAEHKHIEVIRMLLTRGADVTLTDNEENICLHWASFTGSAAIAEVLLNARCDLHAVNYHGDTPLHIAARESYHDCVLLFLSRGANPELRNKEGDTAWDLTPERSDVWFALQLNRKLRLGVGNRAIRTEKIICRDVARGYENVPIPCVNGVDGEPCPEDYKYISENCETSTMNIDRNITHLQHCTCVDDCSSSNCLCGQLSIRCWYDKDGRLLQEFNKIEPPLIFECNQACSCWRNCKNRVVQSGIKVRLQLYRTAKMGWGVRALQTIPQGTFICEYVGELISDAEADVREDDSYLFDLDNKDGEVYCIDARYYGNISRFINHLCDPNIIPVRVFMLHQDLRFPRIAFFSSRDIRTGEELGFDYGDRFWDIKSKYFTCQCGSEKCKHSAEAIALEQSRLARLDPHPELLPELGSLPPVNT
T1 sequence (Q9H9B1 2-1298 limits assumed): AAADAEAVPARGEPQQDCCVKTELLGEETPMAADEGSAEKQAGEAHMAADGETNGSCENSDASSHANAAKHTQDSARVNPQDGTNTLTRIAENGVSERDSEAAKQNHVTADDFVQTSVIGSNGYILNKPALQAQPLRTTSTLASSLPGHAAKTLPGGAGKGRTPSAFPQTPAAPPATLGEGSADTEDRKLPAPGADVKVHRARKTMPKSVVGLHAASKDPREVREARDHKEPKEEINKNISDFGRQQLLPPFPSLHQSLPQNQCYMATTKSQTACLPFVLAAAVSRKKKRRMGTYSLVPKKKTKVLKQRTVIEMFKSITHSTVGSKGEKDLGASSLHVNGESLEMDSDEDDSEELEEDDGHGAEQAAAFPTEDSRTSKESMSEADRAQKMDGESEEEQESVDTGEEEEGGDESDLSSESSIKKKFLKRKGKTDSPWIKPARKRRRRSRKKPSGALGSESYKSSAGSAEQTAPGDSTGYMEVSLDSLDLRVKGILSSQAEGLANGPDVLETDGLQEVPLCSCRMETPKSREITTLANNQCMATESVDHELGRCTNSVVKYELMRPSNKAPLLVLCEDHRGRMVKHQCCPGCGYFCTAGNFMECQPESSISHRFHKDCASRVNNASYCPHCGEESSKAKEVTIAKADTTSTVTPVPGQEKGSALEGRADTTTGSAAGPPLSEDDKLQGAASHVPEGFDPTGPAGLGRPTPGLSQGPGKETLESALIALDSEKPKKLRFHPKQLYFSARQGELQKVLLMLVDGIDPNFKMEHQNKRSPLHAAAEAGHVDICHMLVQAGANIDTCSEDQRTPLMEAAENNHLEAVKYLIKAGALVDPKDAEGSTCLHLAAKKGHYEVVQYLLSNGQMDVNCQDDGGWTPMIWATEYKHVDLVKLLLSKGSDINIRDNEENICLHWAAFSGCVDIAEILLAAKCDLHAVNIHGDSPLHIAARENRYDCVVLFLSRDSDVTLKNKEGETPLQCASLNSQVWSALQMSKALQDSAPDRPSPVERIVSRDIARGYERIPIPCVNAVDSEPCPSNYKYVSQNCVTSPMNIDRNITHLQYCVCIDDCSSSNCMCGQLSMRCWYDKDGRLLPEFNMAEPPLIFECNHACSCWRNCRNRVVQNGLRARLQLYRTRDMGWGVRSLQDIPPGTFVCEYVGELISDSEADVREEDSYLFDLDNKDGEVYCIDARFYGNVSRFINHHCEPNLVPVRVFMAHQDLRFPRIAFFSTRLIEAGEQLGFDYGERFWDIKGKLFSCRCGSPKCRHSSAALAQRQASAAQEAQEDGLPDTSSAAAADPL
TEST_SUMMARY: Triple SILAC pull-down after UNC0638 treatment of 293T cells, DMSO/UNC0638 ratio of protein captured by 3×MBT;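 further: mass spectrometry (Q-Exactive) SILAC quantitation, DMSO/UNC0638 ratio computed after subtracting 3×MBTD355N mutant pull-down background, only proteins with at least twofold 3×MBT over mutant signal considered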
Type: cell-based
Parameters: endogenous in cells; host or cells: HEK 293T
ASSAY_CONDITIONS: SILAC ratio DMSO/UNC0638 of protein pulled down with 3xMBT; UNC0638 in heavy SILAC media
PARAMETER_MEASURED: Relative to UNC0638 UNC Heavy (log base 2)
Numbers only, in log base 2.

[
  {
    "MOLECULE": "ZC3HAV1L (protein, UniProt Q96H79 2-300, looked up) Zinc finger CCCH-type …: AEPTVCSFLTKVLCAHGGRMFLKDLRGHVELSEARLRDVLQRAGPERFLLQEVETQEGLGDAEAEAAAGAVGGGGTSAWRVVAVSSVRLCARYQRGECQACDQLHFCRRHMLGKCPNRDCWSTCTLSHDIHTPVNMQVLKSHGLFGLNENQLRILLLQNDPCLLPEVCLLYNKGEALYGYCNLKDKCNKFHVCKSFVKGECKLQTCKRSHQLIHAASLKLLQDQGLNIPSVVNFQIISTYKHMKLHKMLENTDNSSPSTEHSQGLEKQGVHAAGAAEAGPLASVPAQSAKKPCPVSCEK",
    "REPORTED_MEASUREMENT": 0.14
  }
]

Then there is this molecule:
I am curious: what Relative to UNC0638 UNC Heavy value has been reported for SNRPA1 (protein, UniProt P09661 2-255, looked up) U2 small nuclear …: VKLTAELIEQAAQYTNAVRDRELDLRGYKIPVIENLGATLDQFDAIDFSDNEIRKLDGFPLLRRLKTLLVNNNRICRIGEGLDQALPCLTELILTNNSLVELGDLDPLASLKSLTYLSILRNPVTNKKHYRLYVIYKVPQVRVLDFQKVKLKERQEAEKMFKGKRGAQLAKDIARRSKTFNPGAGLPTDKKKGGPSPGDVEAIKNAIANASTLAEVERLKGLLQSGQIPGRERRSGPTDDGEEEMEEDTVTNGS ? 0.08
